Could you please report measured k cat for the items listed next?
Target: Dopamine beta-hydroxylase (Bos taurus) (UniProt P15101)
Assay: Kinetic parameter kcat was measured for dopamine beta-monooxygenase
Give bare numbers, in s⁻¹.

These recorded examples may help you get a feel for the data.
{"query smiles": "C[C@@H](N)CSc1ccccc1", "measure name": "k cat", "result": 13}
{"query smiles": "NCCCc1ccccc1", "measure name": "k cat", "result": 17}
{"query smiles": "C[C@H](N)CSc1ccccc1", "measure name": "k cat", "result": 37}

Below: the item to evaluate.
Value lookup for k cat; key = NCCc1ccc(O)cc1
121

---

Target: UniProt:P15101
Sequence (whole entry): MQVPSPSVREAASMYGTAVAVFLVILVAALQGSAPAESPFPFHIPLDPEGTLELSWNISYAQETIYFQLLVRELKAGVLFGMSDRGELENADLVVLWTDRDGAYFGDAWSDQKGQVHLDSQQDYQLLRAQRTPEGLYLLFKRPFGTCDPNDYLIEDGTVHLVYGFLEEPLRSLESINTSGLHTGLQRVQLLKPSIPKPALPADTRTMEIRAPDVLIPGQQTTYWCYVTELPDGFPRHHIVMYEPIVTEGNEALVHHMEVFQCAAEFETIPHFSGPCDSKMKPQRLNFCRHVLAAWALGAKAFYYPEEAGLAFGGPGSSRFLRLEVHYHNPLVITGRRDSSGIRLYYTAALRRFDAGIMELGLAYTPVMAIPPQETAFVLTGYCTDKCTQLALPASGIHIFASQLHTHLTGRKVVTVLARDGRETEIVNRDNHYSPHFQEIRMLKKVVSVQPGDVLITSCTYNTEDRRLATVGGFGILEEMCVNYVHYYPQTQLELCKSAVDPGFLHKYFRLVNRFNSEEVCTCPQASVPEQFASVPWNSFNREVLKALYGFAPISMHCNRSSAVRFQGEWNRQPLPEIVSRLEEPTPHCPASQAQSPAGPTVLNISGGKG
Test: Kcat/Km value of the compound
Parameters: unit not given here
Could you please report measured Ratio for the items listed next?
One number for each entry.

{"query smiles": "NCCCc1ccccc1", "measure name": "Ratio", "result": 800}

Batch request: Ratio for each of the following molecules.
1. C[C@H](N)CSc1ccccc1
2. C[C@@H](N)CSc1ccccc1
3. NCCc1ccc(O)cc1

[4800, 700, 60000]
